B1: tRNA (parent)
chain: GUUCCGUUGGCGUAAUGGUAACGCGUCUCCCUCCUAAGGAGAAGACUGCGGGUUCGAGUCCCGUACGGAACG

- Variants of: B1
- METHOD_DESCRIPTION: yeast fitness relative to wild type (ratio to wild type); higher = fitter; tRNA-Arg(CCU), competitive growth, 37 C, YPD
Variants at the floor of the assay were thinned out.
Mark 0.0 for yeast fitness values under 0.6, and 1.0 for everything at or above.

SEQUENCE_INPUT | ASSIGNED_LABEL
GUCCCCUUGGCGUUAUGGUAACGCAUCUCCCUCCUAAAGAGAAGACAGCGGGUUCGAGUCCCGUACGGAACG [U3C G6C A14U G25A G38A U47A] | 0.0
GUUCCGUUGGCGUAAUGGUAACGCGUCUCCCCCCUAAGUAGAAGACUGCGGGUUCGAGUCCCGUACGGAACG [U32C G39U] | 1.0
GUUCCGUUGGCGUAAUGGUAACGCGUCUCCCUCGUAAGGAGAAGACUGCGGAUUCGAGUCCCGUACGGAACG [C34G G52A] | 0.0
GUUCCGUUGGGGUAAUGGUGACGCGUCUCCCUUCUAUGGAGAAGACUGCGGGUUCGAGUCCCGUACGGAACG [C11G A20G C33U A37U] | 0.0
GUUCUGUUGGCGUAAUGGUAACGCGUCUCCCUCCUACGGAGAAGACUGCCGGUUCGAGUCCCGUACGGAACG [C5U A37C G50C] | 0.0
GUUCCGUUGGCAUAAUGGUGACGCGCCUCCGUUCUAAGGAGUAGACUGCGGGUUCGAGUCCCGUACCGAACG [G12A A20G U26C C31G C33U A42U G67C] | 0.0
GUUCCGUUGGCGUAAUGGUAACGUGUCUCCCGCCUAAGGAGAAGACUGCGAGUUCGAGUCCCGUACGGAACG [C24U U32G G51A] | 0.0
GUUCCGUUGGCGUAAUGGUAACACGUCUCCUUGCUAAGGAGAAGACUGCGGGUUCGAGUCCCGUGCGGAACG [G23A C31U C33G A65G] | 0.0
GUUCCGUUGGCGUACUGGUAACGCGUCUCCCUCCUAAGGAGAAGACUGCGGGUUCCAGCCCCGUACGGAACG [A15C G56C U59C] | 0.0
GUUCUGUUGGCGUAAUGGUAAGGCGUCUCCCUCCUAAGGAGAAGACCGCGGGUUCGAGUCCCGUACGGAACG [C5U C22G U47C] | 1.0
GUUCCGUUGGCGUAAUGGCCACGCGUCUCCCUCCUAAGGAGAAGACUGCCGGUUCGAGUCCCGCACGGAACG [U19C A20C G50C U64C] | 0.0
GUUCCGUUGGCGUAAUGAUAACGCGUCUCCCUCUUAAGGAGAAGACUGCGGGUUCGAGUCCCGUACGGAACG [G18A C34U] | 0.0
GUUCCGUUGGCGUAAUGGUAACGCGUCUCCCUCCUAGGGAGAAGACUGGGGGUUUCAGUCCCGUACGAAACG [A37G C49G C55U G56C G68A] | 0.0
GUUCCGUUGGCGUAAUGGUAACGCGUGUCCCUCCUGAGGAGAAGACUGCGGGUUCGAGUCCCGUACUGAACG [C27G A36G G67U] | 0.0
GUUCCGCUGGCGUAAUGGUCACGCGUCUCCCUCCUAAGGAGAAGACUGCGGGUUCGAGUCCCGUACGGAACG [U7C A20C] | 1.0
GUUCCGUCGGCGUAAUGGUAACGCGUCUCCCUCCUAAGGAGAAAACUGCGGGUUCGAGUCCCGUACGGAACG [U8C G44A] | 1.0
GCUCCGUUGGCGUAAUGGUAACGCAUCUCCCUCCUAAGGAGUAGACUGCGGGUUCGAGUCCCGUCCUGAACG [U2C G25A A42U A65C G67U] | 0.0
GUUCCGUUGGCGUAAUGGUAACGCGUCUCCCUCCUACGGAGAAGACUGCGGGUUCGUGUCCCGUUCGGAACG [A37C A57U A65U] | 1.0
GUUCCGUUGGCGUAAUGGUAACGCGUCUCCCUCCUAAGGAGAAGACUGCGGGUACGCGUCCCGUACGGAACG [U54A A57C] | 0.0
GUUCCGUUGGCGCUAUGGUAACGCGUCUCCCCCCUAAGGAGAAGACUGCGGGUUCGAGUCCCGUACGGAACG [U13C A14U U32C] | 0.0
GUUCCGUUGGCGUAAUGGUAACGCGUCUCCCUCCUAAGGUGAAGACUGCGGGUUCGAGUCCUGUACGGAACG [A40U C62U] | 1.0
GUUCCGUAGGCGUAAUGGUAACGCGUCUCCCUCCUAAGGAGUAGACUGCGGGUUCGAGUCCGGUACGGAACG [U8A A42U C62G] | 0.0
GUUCCGUUGGCGUAAUGGUAACGUGUCUCCCUCCUAAGGAGAAGACCGCGGGUUCGAGUCCCAUACGGAACG [C24U U47C G63A] | 1.0
GUUUCGUUCGCGUAAUGGUAACGCGUCUCCCUGCUAAGGAGAAGACUGCGGGUCCGAGUCCCGUACGGAACG [C4U G9C C33G U54C] | 0.0
GUUCGGUUGGCGUUAUGGUAACGCGUCUCACUCCUAAGGAGAAGACUGCGGGUUCGAGUCCAGUACGGAACG [C5G A14U C30A C62A] | 0.0
GUUCCGUUGGCGUAAUGGUAACGCGUCUCUCUCCUAAGGAGAAGACUGCGGGUUCGAGUCCCCUACGGUACG [C30U G63C A69U] | 0.0
GUUCCGUUGGCGUAGUGGUAACGCGUCGCCCUCCUAAGGAGAAGACUGCGGGUUCGAGUCCCGUACGGAACG [A15G U28G] | 1.0
GUUCCGUUGGCGUAAUGGUAACCCGUCUCCCUCCUAAGGAGAAGACUACGGGUUCGAGUCCCGAUCGGAACG [G23C G48A U64A A65U] | 0.0
GUUUCGUUGGCGUAAUGGUAACGCGUUUCCCUCCUAAGGAGAAGACUGCGGGUUCGAGUCCCGCACGGAACG [C4U C27U U64C] | 1.0
GUUCCGUUCGCGUGAUGGUAACGCGUCUCCCUCCUAAGGAGAAGACUGCGGGUUCGUGUAGCGUACGGAACG [G9C A14G A57U C60A C61G] | 0.0
GUUCCGUUGGCGUAAUGGGAACGCGUCUCCCUCCUAAGGAGAAGACUGCGGGUUCGAGUCCUGUACGGAACG [U19G C62U] | 1.0
GUUCCGGUGGCGUAGUGGUAACGCGUCUCCCUGCUAAGGAGAAGACUGCGGGUUCGAGUCCCGUACGGAACG [U7G A15G C33G] | 0.0
GUUCCGUUGGCGUAAUGGUUACGCGUCUCCUUCCUAAGGAGAAGACUGCGGGUUCAAGUCUCGUACGGAACG [A20U C31U G56A C61U] | 0.0
GUUCCGUUGCCGUAAUGGUAACGCGUCUCCCUCCUAAGGAGAAGACUGCGGGUUCGCGUCCCGUACGGAACG [G10C A57C] | 0.0
GUUGCGUUAGCCUAAUGGUAACGCGUCUACCUCCUAAGGAGAAGACUGCCGGUUCGAGUCCCGUACGGAACG [C4G G9A G12C C29A G50C] | 0.0
GUUCCGUUGGCGUACAGGUAACGCGUCUCCGUCUUAAGGAGAAGACUGCGGGUUCGAGUCCCGUACGGUACG [A15C U16A C31G C34U A69U] | 0.0
GUUCCGUUGACGUAAUGGUAACGCGUCUCUCUCCUAAGGAGAAGACUGCGGGUUCGAGUGCCGUACGGAACG [G10A C30U C60G] | 0.0
GUUCUGUUGACGUAAAGGUAACGCGUCUCCCUCCUAAGGAGAAGACUGCGGGUUCGAGUCCCGUGCGGAACG [C5U G10A U16A A65G] | 0.0
GUUCCGUUGGAGUAAUGGUAACGCGUCUCGCUCCUAAGGAGAAGUCUGCGGGUUCGAGUACUGUACGGAACG [C11A C30G A45U C60A C62U] | 0.0
GUUCCGUUGGCGUAAUGGUAACGCGUCUCCAUCCUAACGAGAAAACUGCGGGUUCGAGUCCCGUGCGGAACG [C31A G38C G44A A65G] | 0.0
GUUCCGUUGGCGUAAUGGUAACACGUCUCCCUCCUGAGGAGAAGACUGCGGGUUCGAGUCUCGUUCGGAACG [G23A A36G C61U A65U] | 0.0
